# TEST_PROTOCOL: Cytotoxicity in HepG2 cells, 4 days, Resazurin assay
# RECORDED_CONDITIONS: human, HepG2 cells
Exercise: state measured CC50 at 4 days for each of the compounds provided.

INSERT INTO results (compound, measurement_type, readout_value) VALUES
  ('Cc1cc(NC(=O)c2cccc(S(=O)(=O)N[C@@H](C)C(F)(F)F)c2)ccc1F [Compound 226]', 'CC50 at 4 days', '> 25 µM'),
  ('Cc1cc(NC(=O)c2cccc(S(=O)(=O)N[C@H]3CCOC3)c2)ccc1F [Compound 72]', 'CC50 at 4 days', '> 25 µM'),
  ('O=C(Nc1ccccc1)c1ccnc(S(=O)(=O)NC2CCCCC2)c1 [Compound 66]', 'CC50 at 4 days', '> 100 µM');

Next, consider the following compound.
Report measured CC50 at 4 days; entry is Cc1cc(NC(=O)c2cccc(S(=O)(=O)NC3CCN(C)C3=O)c2)ccc1F (stereo not shown) [Compound 181]
> 25 µM
